- measuredOn: HIV-1 envelope 3637_V5_C3 (HIV-1)
- protocol: cell-based or functional assay
quantityMeasured: IC50, PSV assay

The following binders have reported results that may help.
bNAb19 (antibody, V domains shown) VH: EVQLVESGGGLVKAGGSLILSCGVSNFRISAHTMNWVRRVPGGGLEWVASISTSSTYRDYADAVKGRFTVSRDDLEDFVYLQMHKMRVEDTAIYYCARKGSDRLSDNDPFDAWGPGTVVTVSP VL: DVVMTQSPSTLSASVGDTITITCRASQSIETWLAWYQQKPGKAPKLLIYKASTLKTGVPSRFSGSGSGTEFTLTISGLQFDDFATYHCQHYAGYSATFGQGTRVEIKR; > 300 nM
bNAb18 (antibody, V domains shown) VH: QVQLVQSGAEVRKPGSSVTISCKPVGGTFTNFAIHWVRQAPGQGLEWVGGRVPVVGIYKYGKKFHDRLRLYEDDPMKTVFLELRSLTSDDTGVYYCTRWRGCGMCPYDTSSYYNDASDVWGPGTKVIVSA VL: EIVLTQSPVTLSLSSGETGTLSCRASQNISSSWIAWYQQRRGQVPRLLISAASARAAGIPDRFTGRGSGTDFTLTITRLEPEDFGVYSCQYYGGSFFTFGPGTQVDVKR; > 500 nM
bNAb23 (antibody, V domains shown) VH: QVQLLESGPGLVRPSETLTLTCSVFNSRVSGYYYSWIRQPPGRGLEWIASTHFSLRPSRNPSLLSRVTTSIDTERYQVFLNMRSVTAADTAVYFCARGDASGWRADYFPHWGQGTLVVVSS VL: QSVLTQPPSASGSPGQSVTISCTGTSSDIGASDYVSWYQQYPGEAPKVIIYDVTKRPSGVPDRFSGSKSGTTASLTVSGLQAEDEADYYCSSDAGRHTLLFGGGTKVTVLG; > 500 nM

Next binder, please.
Q: Return reported IC50, PSV assay; argument: bNAb15 (antibody, V domains shown) VH: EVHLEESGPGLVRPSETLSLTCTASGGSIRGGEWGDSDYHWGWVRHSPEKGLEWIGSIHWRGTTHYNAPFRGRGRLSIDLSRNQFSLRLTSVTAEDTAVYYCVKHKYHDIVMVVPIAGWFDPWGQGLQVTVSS VL: EIMMTQSPAILSVSPGDRATLSCRASQSVKNNLAWYQKRPGQAPRLLIFDTSSRASGIPARFSGGGSGTEFTLTVNSMQSEDFATYYCQQYEEWPRTFGQGTKVEIKR
Ans: 5 nM
